Parameter concentration at 24 h: see the listing below.
- test: Pharmacokinetics, liver samples (Example 17)
- Format: in vivo, mice
- study-conditions: mouse, liver, ip, 24 h after i.p. injection of THC or THC-d5; label = analyte; read-out: Component in the liver, mouse 3

molecule	unit-descriptor	concentration at 24 h
CCCCCc1cc(O)c2c(c1)OC(C)(C)[C@@H]1CCC(C)=C[C@@H]21 [THC, Δ-9-tetrahydrocannabinol]	ng/mL	8.86
[2H]C([2H])([2H])C1=C[C@H]2c3c(O)cc(CCCCC)cc3OC(C)(C)[C@@H]2CC1([2H])[2H] [9-CD3-(8-D2)-THC]	ng/mL	4.64

====

- test: Persistence over time, liver samples postmortem (Example 18)
- Format: in vivo, mice
- study-conditions: mouse, liver, oral; 4 mg/kg administered, died at 24 h; number in brackets = mice with a value; read-out: Average results for 3 mice (Table 13, liver)
- Method: Blood samples from each mouse were collected at each time point for the pharmacokinetics tests. For 6 h after administrating of all tested drugs, and after testing their WRL on the hot plate, half the mice (n=3) of each group were sacrificed, and the liver and brain of each animal were taken for pharmacokinetics tests. From the remaining mice, blood samples were acquired at 12 h after administration for pharmacokinetics tests. […]

compound	concentration at 24 h [ng/g]
CCCCCc1cc(O)c2c(c1)OC(C)(C)[C@@H]1CCC(C)=C[C@@H]21 [THC, Δ-9-tetrahydrocannabinol]	0.87

====

- test: Pharmacokinetics, liver samples (Example 17)
- Type: in vivo, mice
- study-conditions: mouse, liver, ip, 24 h after i.p. injection of THC or THC-d5; label = analyte; read-out: Component in the liver, mouse 1

compound	concentration at 24 h, ng/mL
[2H]C([2H])([2H])C1=C[C@H]2c3c(O)cc(CCCCC)cc3OC(C)(C)[C@@H]2CC1([2H])[2H] [9-CD3-(8-D2)-THC]	12.4
CCCCCc1cc(O)c2c(c1)OC(C)(C)[C@@H]1CCC(C)=C[C@@H]21 [THC, Δ-9-tetrahydrocannabinol]	5.55

====

- test: Persistence over time, blood samples (Example 18)
- Type: in vivo, mice
- study-conditions: mouse, blood, oral; 8 mg/kg administration, Time 24 h (3 mice); label = analyte
readout: concentration at 24 h (ng/mL)

molecule	readout	unit-descriptor	measured-value
CCCCCc1cc(O)c2c(c1)OC(C)(C)[C@@H]1CCC(C)=C[C@@H]21 [THC, Δ-9-tetrahydrocannabinol]	concentration at 24 h	ng/mL	0.26

====

Here the recorded concentration at 24 h is given for each entry.
- test: Pharmacokinetics, liver samples (Example 17)
- Type: in vivo, mice
- study-conditions: mouse, liver, ip, 24 h after i.p. injection of THC or THC-d5; label = analyte; n=3; read-out: Component in the liver, Average
readout: concentration at 24 h (ng/mL)

compound	measured-value
CCCCCc1cc(O)c2c(c1)OC(C)(C)[C@@H]1CCC(C)=C[C@@H]21 [THC, Δ-9-tetrahydrocannabinol]	7.62
[2H]C([2H])([2H])C1=C[C@H]2c3c(O)cc(CCCCC)cc3OC(C)(C)[C@@H]2CC1([2H])[2H] [9-CD3-(8-D2)-THC]	10.7

====

In this section we review reported concentration at 24 h values for a set of compounds.
- test: Persistence over time, liver samples postmortem (Example 18)
- Type: in vivo, mice
- study-conditions: mouse, liver, oral; 8 mg/kg administered, died at 24 h; number in brackets = mice with a value; read-out: Average results for 3 mice (Table 13, liver)
readout: concentration at 24 h (ng/g)

compound	measured-value
[2H]C([2H])([2H])C1=C[C@H]2c3c(O)cc(CCCCC)cc3OC(C)(C)[C@@H]2CC1([2H])[2H] [9-CD3-(8-D2)-THC]	1.64
CCCCCc1cc(O)c2c(c1)OC(C)(C)[C@@H]1CCC(C)=C[C@@H]21 [THC, Δ-9-tetrahydrocannabinol]	3.52
